Provenance of the data: ChEMBL document CHEMBL4513216

System: Plasmodium berghei
EXPERIMENT NOTES: Screen against P. berghei liver stage (PbLuc), transformed with Luciferase, at 10uM
Assay type: functional, HepG2
PROTOCOL CONDITIONS: tested at 10 uM
Hit rate of the full screen: of about 69,000 compounds, about 8,600 (12%) showed an effect of 50% or more. The list comes from a sample in which strong results are over-represented; it also holds close analogues and randomly drawn compounds.
Mark T for reported INHIBITION of 30% or greater; mark F for anything smaller.

Cc1csc(CN2CCn3c(COc4cccnc4)cnc3C2C)n1 (stereo not drawn) :: T
O=C(CC1CCN(c2ncnc3ccccc23)CC1)N1CCCC1 :: T
CC1c2ncc(COc3cccnc3)n2CCN1C(=O)Cc1ccco1 (stereo not drawn) :: F
Cc1cccc(C2(C(=O)NC(C)Cn3ccnc3)CC2)c1 (stereo not drawn) :: T
Cc1ccc(CN2CCn3c(COc4cccnc4)cnc3C2C)o1 (stereo not drawn) :: F
CC(C)SCc1cccc(NC(=O)NC(C)c2nc[nH]n2)c1 (stereo not drawn) :: F
CC(=O)c1cccc(NC(=O)NCCCc2nc(C(C)C)no2)c1 :: F
CC(C)Cc1cc(NC(=O)c2ccc(=O)[nH]n2)n(C)n1 :: T
COCCNC(=O)Nc1cccc(COCCOC(C)C)c1 :: F
C1CC(CN2C[C@@H]3C[C@@H](c4nnc(C5CC5)o4)O[C@@H]3C2)CCO1 :: F
Cc1ccc2cccc(Oc3nc(C)c(C(=O)O)s3)c2n1 :: F
COc1ccc(C)cc1C(C)NC(=O)CCn1cncn1 (stereo not drawn) :: F
Cc1nnc(CCNC(=O)Nc2ccc(S(C)(=O)=O)cc2)[nH]1 :: F
CC(C)SCC(=O)N1CCCn2nc(C(=O)Nc3ccccc3)cc2C1 :: F
Cc1nnc(NC(=O)CN2CCc3nn(C(C)C)c(=O)cc3C2)s1 :: F
CC(=O)c1cccc(NC(=O)NCCOCC2CC2)c1 :: F
Cn1ncc2c(N3CCC(CC(=O)N4CCCC4)CC3)ncnc21 :: F
